- System: L1210 leukemia ip in BDF1 mice, survival T/C
- protocol notes: NCI In Vivo Anticancer Drug Screen. Data for tumor model L1210 Leukemia (intraperitoneal) in B6D2F1 (BDF1) mice
- test parameters: endpoint: mean survival time; dose: 50.0 mg/kg/injection; schedule: Q01DX Z (ip); vehicle: methylcellulose (MC); higher = longer survival
Toxic doses and inconclusive results are not listed.
I'd be grateful if you could share measured T/C for these entries.

Here is how some compounds turned out for T/C.
O=P(Oc1ccccc1)(OP(=O)(Oc1ccccc1)N(CCCl)CCCl)N(CCCl)CCCl (stereo not given) = 96 % of control
Cc1cccc(Nc2cc(N)nc(N)n2)c1 = 96 % of control
CC[N+](C)(CC)CCCN1C(=O)c2ccccc2S1(=O)=O = 91 % of control
FC(F)(F)c1nccc(=S)[nH]1 = 98 % of control

Enquiry: Any idea what its T/C is? The compound is Clc1ccc(CSc2ncc(Br)c(Nc3cc(Cl)ccc3Cl)n2)cc1
Return: 96 % of control
